# System: UACC-62
# assay.name: NCI tumour cell line growth inhibition, 48 h
Active and inactive are the calls of the source. Cut-off read from the data, not from the text of the source: active = GI50 up to about 1.1 µM and inactive = higher.
reported.property: GI50

**Q:** Return GI50 measured with UACC-62 given this compound: `CC1=C(C)C(=O)C(C2=C(C3=CC(=O)C(C)=C(C)C3=O)C(=O)C(C)=C(C)C2=O)=CC1=O`
**A:** 10.5 µM (inactive)

**Q:** Return GI50 measured with UACC-62 given this compound: CNc1ncnc2c1nc(NC1CCCC1)n2C1OC(CO)C(O)C1O (stereo not drawn)
**A:** > 100 µM (inactive)

**Q:** Return GI50 measured with UACC-62 given this compound: `Cc1ccc(S(=O)(=O)Nn2c(S)c(C#N)c(-c3ccc(N(C)C)cc3)c(C#N)c2=O)cc1`
**A:** 25.7 µM (inactive)

**Q:** Return GI50 measured with UACC-62 given this compound: `Cc1n2nc(N)sc2n[n+]1CC(=O)c1ccccc1`
**A:** 14 µM (inactive)

**Q:** Return GI50 measured with UACC-62 given this compound: CC1=NN(c2ccccc2)C(=O)C1C(=O)C(=O)Nc1ccc(C)cc1C (stereo not drawn)
**A:** > 100 µM (inactive)

**Q:** Return GI50 measured with UACC-62 given this compound: `NCCOc1cccc(C2(N3CCCCC3)CCCCC2)c1`
**A:** 20.2 µM (inactive)

**Q:** Return GI50 measured with UACC-62 given this compound: `Nc1nc(N)c(C2=CCN(Cc3ccccc3)CC2)c(=O)[nH]1`
**A:** > 100 µM (inactive)

**Q:** Return GI50 measured with UACC-62 given this compound: CCOC(=O)C1CCC(=O)N1C(=O)c1ccc(Cl)cc1 (stereo not drawn)
**A:** 22.3 µM (inactive)

---

# System: CAKI-1
# assay.name: NCI tumour cell line growth inhibition, 48 h
Calls of active or inactive are those of the source. Rule as the data show it: active = GI50 up to about 1.1 µM and inactive = higher.
Classes to choose from: active, inactive

**Q:** Answer briefly: the call reported for `Clc1ccc(Nc2nnc(CNc3ccc(-c4nnc(Nc5ccc(Cl)cc5)s4)cc3)s2)cc1` in this assay.
**A:** inactive

**Q:** Answer briefly: the call reported for `O=c1oc2ccc3ccccc3c2cc1-c1cn2ccccc2n1` in this assay.
**A:** inactive

**Q:** Answer briefly: the call reported for `COC(=O)C1=CCC[C@H]2[C@@]1(COC(C)=O)CC[C@@H](C)[C@]2(C)CC(=O)c1ccoc1` in this assay.
**A:** inactive

**Q:** Answer briefly: the call reported for OC(COc1ccccc1)CN1CCCCC1 (stereo not drawn) in this assay.
**A:** inactive

**Q:** Answer briefly: the call reported for `O=C(NC(Nc1ccc(F)c(Cl)c1)(C(F)(F)F)C(F)(F)F)C(C(F)(F)F)C(F)(F)F` in this assay.
**A:** inactive

**Q:** Answer briefly: the call reported for `Cc1ccc(NC(=O)c2cccc([N+](=O)[O-])c2O)c(C)c1` in this assay.
**A:** inactive

**Q:** Answer briefly: the call reported for `COc1ccc(-c2nnc(-c3ccncc3)o2)cc1` in this assay.
**A:** inactive

**Q:** Answer briefly: the call reported for C=C1CC2(CC(c3ccccc3Cl)OC(c3ccccc3Cl)C2)OC1=O (stereo not drawn) in this assay.
**A:** inactive

**Q:** Answer briefly: the call reported for CN[C@@H](C)[C@H](OP(=O)(O)OC1[C@@H](O)[C@H](O)C(O)[C@H](O)[C@@H]1O)c1ccccc1 (stereo partly drawn) in this assay.
**A:** inactive

**Q:** Answer briefly: the call reported for O=C(Nc1ccn(C2CCC(COC(c3ccccc3)(c3ccccc3)c3ccccc3)O2)c(=O)n1)c1ccccc1 (stereo not drawn) in this assay.
**A:** inactive

**Q:** Answer briefly: the call reported for `O=C(Nc1cccc(Cl)c1)c1cc2cc(/N=N/c3ccc(Br)cc3)ccc2oc1=O` in this assay.
**A:** inactive

**Q:** Answer briefly: the call reported for CC(=O)O[C@@]12CO[C@@H]1C[C@H](O)[C@@]1(C)C(=O)[C@H](O)C3=C(C)[C@@H](OC(=O)[C@H](O)[C@@H](NC(=O)OC(C)(C)C)c4ccccc4)C[C@@](O)([C@@H](OC(=O)c4ccccc4)[C@H]21)C3(C)C [DOCETAXEL] in this assay.
**A:** active

**Q:** Answer briefly: the call reported for `O=C1c2ccccc2C(=O)c2c1nc1ccccc1c2-c1cncc(-c2c3c(nc4ccccc24)C(=O)c2ccccc2C3=O)c1` in this assay.
**A:** inactive

**Q:** Answer briefly: the call reported for `CC1(C)O[C@@H](CP(c2cccc3ccccc23)c2cccc3ccccc23)[C@H](CP(c2cccc3ccccc23)c2cccc3ccccc23)O1` in this assay.
**A:** inactive

**Q:** Answer briefly: the call reported for `CC(=O)ON1C(=O)c2cccc3cccc(c23)C1=O` in this assay.
**A:** inactive

**Q:** Answer briefly: the call reported for Cc1ccc(S(=O)(=O)OC(C=O)C(O)C(O)COC(c2ccccc2)(c2ccccc2)c2ccccc2)cc1 (stereo not drawn) in this assay.
**A:** inactive

**Q:** Answer briefly: the call reported for `Nc1nc(N)c(C2=CCN(Cc3ccccc3)CC2)c(=O)[nH]1` in this assay.
**A:** inactive

**Q:** Answer briefly: the call reported for Cc1ccc2c(c1)C(O)(c1ccccc1)CCS2 (stereo not drawn) in this assay.
**A:** inactive
